Where a name gives a salt, the structure may show the parent alone.
ASSAY_READOUT: melting point

O=c1ccn(-c2ccccc2OC(F)F)nc1-c1ccnn1-c1ccccc1    123 to 124 °C
O=c1ccn(-c2ccc(N3CCOCC3)cc2)nc1-c1ccnn1-c1ccccc1    205 to 206 °C
COc1cn(-c2cc3c(cc2F)OC(F)(F)O3)nc(-c2ccnn2-c2ccccc2)c1=O    200 to 202 °C

Problem: For O=c1ccn(-c2cccc(F)c2)nc1-c1ccnn1-c1ccccc1 , what is its reported melting point?
Solution: 170 to 171 °C

Problem: // next record O=c1ccn(-c2cccc(C(F)(F)F)c2)nc1-c1c[nH]nc1-c1ccccc1
Solution: 206 to 208 °C

Problem: // next record CS(=O)(=O)c1cccc(-n2ccc(=O)c(-c3ccnn3-c3ccccc3)n2)c1
Solution: 199 to 200 °C

Problem: // next record O=c1ccn(-c2cccc(C(F)(F)F)c2)nc1-c1ccnn1Cc1ccccc1
Solution: 156 to 157 °C

Problem: // next record O=c1ccn(-c2cccc(C(F)(F)F)c2)nc1-c1ccnn1-c1cccc(F)c1
Solution: 104 to 105 °C

Problem: // next record COc1ccccc1-n1ccc(=O)c(-c2ccnn2-c2ccccc2)n1
Solution: 153 to 154 °C

Problem: // next record COc1cn(-c2ccc(OS(=O)(=O)C(F)(F)F)cc2F)nc(-c2ccnn2-c2ccccc2)c1=O (as salt: methanesulfonate)
Solution: 108 to 110 °C

Problem: // next record Cc1cccc(-n2ccc(=O)c(-c3ccnn3-c3ccccc3)n2)c1
Solution: 115 to 116 °C

Problem: // next record COc1cn(-c2ccccc2F)nc(-c2ccnn2-c2ccccc2)c1=O
Solution: 163 to 165 °C

====

Item-by-item account of melting point

O=c1ccn(-c2cccc(C(F)(F)F)c2)nc1-c1ccnn1-c1ccc(F)cc1    130 to 131 °C
O=c1ccn(-c2cccc(C(F)(F)F)c2)nc1-c1cc(C(F)(F)F)nn1-c1ccccc1    190 to 191 °C
Cn1cc(-c2nn(-c3cccc(C(F)(F)F)c3)ccc2=O)c(-c2ccccc2)n1    181 to 183 °C
COc1cn(-c2cccc3cccnc23)nc(-c2ccnn2-c2ccccc2)c1=O    189 to 192 °C

Now let's try a different one.
Problem: For COCc1cn(-c2cccc(C(F)(F)F)c2)nc(-c2ccnn2-c2ccccc2)c1=O , what is its reported melting point?
Solution: 137 to 139 °C

====

# ASSAY_SYSTEM: Human PDE10A enzyme (Homo sapiens, UniProt Q9Y233)
# Construct: Human PDE10A enzyme was generated from Sf9 or COS-7 cells transfected with the full-length gene; His-tag; made in house; host or cells: Sf9 or COS-7 cells
# Sequence (Q9Y233 267-1055): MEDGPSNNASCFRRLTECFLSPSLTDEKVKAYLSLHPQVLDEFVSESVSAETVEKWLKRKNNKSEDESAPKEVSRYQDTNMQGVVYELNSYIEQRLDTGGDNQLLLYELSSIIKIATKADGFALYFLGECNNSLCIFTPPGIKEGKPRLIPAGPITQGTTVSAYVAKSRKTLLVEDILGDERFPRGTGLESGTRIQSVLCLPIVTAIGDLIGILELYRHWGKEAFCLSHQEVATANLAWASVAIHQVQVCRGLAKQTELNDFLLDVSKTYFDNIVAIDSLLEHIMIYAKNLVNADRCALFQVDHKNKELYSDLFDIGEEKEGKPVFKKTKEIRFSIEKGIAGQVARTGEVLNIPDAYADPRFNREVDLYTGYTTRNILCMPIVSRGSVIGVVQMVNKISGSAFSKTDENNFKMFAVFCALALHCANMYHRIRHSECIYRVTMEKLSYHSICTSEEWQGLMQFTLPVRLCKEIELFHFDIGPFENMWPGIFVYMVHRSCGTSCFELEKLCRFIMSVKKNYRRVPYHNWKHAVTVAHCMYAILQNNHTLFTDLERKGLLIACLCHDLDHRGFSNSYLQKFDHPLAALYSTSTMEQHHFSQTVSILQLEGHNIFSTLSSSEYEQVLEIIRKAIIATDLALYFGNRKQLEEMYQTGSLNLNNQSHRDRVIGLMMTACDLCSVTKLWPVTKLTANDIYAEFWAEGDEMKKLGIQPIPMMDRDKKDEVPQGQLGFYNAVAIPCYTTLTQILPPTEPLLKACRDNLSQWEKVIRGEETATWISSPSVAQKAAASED
# EXPERIMENTAL_DETAILS: PDE enzyme inhibition, SPA (Scintillation Proximity Assay)
# Assay type: biochemical
# REPORTED_CONDITIONS: Table 2; compound at 0.1 μM; read-out: Percent inhibition (0.1 μM)
# Method: Human PDE10A enzyme was generated from Sf9 or COS-7 cells transfected with the full-length gene. Cloned enzyme was extracted from homogenized cell pellets. The extracted enzyme from Sf9 cells was partially purified using His-tag affinity column. The enzyme was stored at −70° C. until use. PDE activity was measured using a SPA (Scintillation Proximity Assay) (GE Healthcare). […] Inhibition rate was calculated on the basis of 0% control wells with DMSO and 100% control wells without enzyme.
Item-by-item account of inhibition at 0.1 µM
Only the number, expressed in %, is required.

Field: example entries. Status: answers known.
COc1cn(-c2ccc(N3CC(C)(C)CC3=O)cc2F)nc(-c2ccnn2-c2ccccc2)c1=O [Example 189]    100
COc1cn(-c2ccc(N3CCC(F)(F)C3)cc2F)nc(-c2ccnn2-c2ccccc2)c1=O [Example 103]    99
COc1cc(-n2cccn2)ccc1-n1cc(OC)c(=O)c(-c2ccnn2-c2ccccc2)n1 [Example 192]    101
COc1cn(-c2ccc(N3CCN(C)C3=O)cc2F)nc(-c2ccnn2-c2ccccc2)c1=O [Example 178]    92
COc1cn(-c2ccc(N3CCC(C)(O)CC3)cc2F)nc(-c2ccnn2-c2ccccc2)c1=O [Example 186]    100

Problem: For COc1cn(-c2ccc(-c3cnn(C)c3)cc2F)nc(-c2ccnn2-c2ccccc2)c1=O [Example 114] , what is its reported inhibition at 0.1 µM?
Solution: 102

Problem: // next record COc1cn(-c2ccc(N3CCCC3=O)cc2F)nc(-c2ccnn2-c2ccccc2)c1=O [Example 108]
Solution: 103

Problem: // next record COc1cn(-c2ccc(-n3ccnc3)cc2F)nc(-c2ccnn2-c2ccccc2)c1=O [Example 111]
Solution: 97

Problem: // next record COc1cn(-c2ccc(-n3cccn3)cc2F)nc(-c2ccnn2-c2ccccc2F)c1=O [Example 163]
Solution: 101

Problem: // next record COc1cn(-c2ccc(N3CCC(F)(F)CC3)cc2F)nc(-c2ccnn2-c2ccccc2)c1=O [Example 106]
Solution: 100

Problem: // next record COc1cn(-c2ccc(-n3nccc3OC(F)F)cc2F)nc(-c2ccnn2-c2ccccc2)c1=O [Example 123]
Solution: 99

Problem: // next record COc1cn(-c2ccc(N3CCC3=O)cc2F)nc(-c2ccnn2-c2ccccc2)c1=O [Example 107]
Solution: 104

Problem: // next record COc1cn(-c2ccc(-c3cnn(C(F)F)c3)cc2F)nc(-c2ccnn2-c2ccccc2)c1=O [Example 116]
Solution: 99

Problem: // next record COc1cn(-c2ccc(N3CC(F)(F)C3)cc2F)nc(-c2ccnn2-c2ccccc2)c1=O [Example 102]
Solution: 103

Problem: // next record COc1cn(-c2cccc(-c3cnn(C)c3)c2F)nc(-c2ccnn2-c2ccccc2)c1=O [Example 113]
Solution: 99

Problem: // next record COc1cn(-c2ccc(-n3c(=O)ccn3C(F)F)cc2F)nc(-c2ccnn2-c2ccccc2)c1=O [Example 124]
Solution: 97
